Target: T1, human IL-1α (human, UniProt P01583 113-271)
T1 construct: also called IL-1alpha; hIL-1α
T1 sequence (looked up): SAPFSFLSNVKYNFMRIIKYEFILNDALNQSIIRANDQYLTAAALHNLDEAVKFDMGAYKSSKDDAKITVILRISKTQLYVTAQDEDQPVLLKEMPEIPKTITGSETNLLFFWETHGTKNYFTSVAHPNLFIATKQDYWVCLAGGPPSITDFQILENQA
Experiment: Table 62 IC50; RBA presumed
QUANTITY_NAME: pIC50
Please treat pIC50 as minus the base-10 logarithm of the molar concentration.

Q: Give the measured pIC50 of ABT1-95-13 (other, VK dAb) VL: DIQMTQSPSSLSASVGDRVTITCRASQPIVRNLRWYQQKPGKAPKLLIYSSSYLERGVPSRFSGSGSGTDFTLTISSLQPEDFATYHCQQGYRWPVTFGQGTKVEIKR .
Ans: 9.52

Q: Need pIC50 of ABT1-95-124 (other, VK dAb) VL: DIQMTQSPSSLSASVGDRVTITCRASQPIVRNLRWYQQKPGKAPKLLIYSSSYLEPGVPSRFSGSGSGTDFTLTISSLQPEDFATYHCQQGYMWPVTFGQGTKVEIKR , thanks.
Ans: 9.70

Q: Reported pIC50, binder ABT1-95-9 (other, VK dAb) VL: DIQMTQSPSSLSASVGDRVTITCRASQPIQGNLRWYQQKPGKAPKLLIYSSSYLERGVPSRFSGSGSGTDFTLTISSLHPEDFATYHCQQGYRWPVTFGQGTKVEIKR : ____
Ans: 9.10

Q: I am curious: what pIC50 value has been reported for ABT1-95-78 (other, VK dAb) VL: DIQMTQSPSSLSASVGDRVTITCRASQPIVRNLRWYQQKPGKAPKLLIYSESYLEPGVPSRFSGSGSGTDFTLTISSLQPEDFATYHCQQGYRWPVTFGQGTKVEIKR ?
Ans: 9.52

FYI, the data here is from patent US20090291081A1.
